molecular target: Bifunctional protein GlmU (Mycobacterium tuberculosis (strain ATCC 25618 / H37Rv)); test: inhibition of mycobacterial GlmU enzyme – biochemical, glucosamine-1-phosphate acetyltransferase (AID 1376);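 note: 0% = complete reaction with vehicle and 100% = reaction without substrate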; details: M. tuberculosis GlmU acetyltransferase enzyme assay;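 tested at 30 µM in the primary screen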
Hit rate of the full screen: of about 220,000 compounds, about 530 (0.24%) were called active. Cut-off read from the data, not from the text of the source: active = inhibition above about 13%; inconclusive = no clear call, values can overlap the other calls; inactive = below that. The sample holds actives, similar compounds and a random draw of the others, so the mix is not that of the screen. Potency and affinity values are given separately.
Mark one answer only. Choices: active, inactive

Recorded test call requested for COc1cccc(C2C=C(c3ccc(Br)s3)Nc3ncnn32)c1OC (centres undefined)
inactive

---

biological target: Bifunctional protein GlmU (Mycobacterium tuberculosis (strain ATCC 25618 / H37Rv)); assay: inhibition of mycobacterial GlmU enzyme – biochemical, glucosamine-1-phosphate acetyltransferase (AID 1376);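 note: 0% = complete reaction with vehicle and 100% = reaction without substrate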; details: M. tuberculosis GlmU acetyltransferase enzyme assay; active compounds read high;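 tested at 30 µM in the primary screen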
Among all 220,000 compounds or so, about 530 (0.24%) were called active. This excerpt belongs to a sample that is enriched for actives. Potency and affinity values are given separately.
measurement name: inhibition (%)
# output: bare number, implied unit %

Requested field: inhibition. Item: `Cc1ccc(NC(=O)CN2C(=O)S/C(=C/c3ccc(-c4cccc(C(=O)O)c4)o3)C2=O)cc1`
13.1

Requested field: inhibition. Item: `O=C(CSc1ncn[nH]1)NCCOc1ccccc1`
-0.55

Requested field: inhibition. Item: `CCOC(=O)c1c(NC(=O)CN2CCCCC2)sc(CN(C)C)c1-c1ccccc1`
-2.86
